Target: Prostaglandin G/H synthase 1 (Rattus norvegicus); further: assay procedure not described here
Sequence (Q63921 whole entry): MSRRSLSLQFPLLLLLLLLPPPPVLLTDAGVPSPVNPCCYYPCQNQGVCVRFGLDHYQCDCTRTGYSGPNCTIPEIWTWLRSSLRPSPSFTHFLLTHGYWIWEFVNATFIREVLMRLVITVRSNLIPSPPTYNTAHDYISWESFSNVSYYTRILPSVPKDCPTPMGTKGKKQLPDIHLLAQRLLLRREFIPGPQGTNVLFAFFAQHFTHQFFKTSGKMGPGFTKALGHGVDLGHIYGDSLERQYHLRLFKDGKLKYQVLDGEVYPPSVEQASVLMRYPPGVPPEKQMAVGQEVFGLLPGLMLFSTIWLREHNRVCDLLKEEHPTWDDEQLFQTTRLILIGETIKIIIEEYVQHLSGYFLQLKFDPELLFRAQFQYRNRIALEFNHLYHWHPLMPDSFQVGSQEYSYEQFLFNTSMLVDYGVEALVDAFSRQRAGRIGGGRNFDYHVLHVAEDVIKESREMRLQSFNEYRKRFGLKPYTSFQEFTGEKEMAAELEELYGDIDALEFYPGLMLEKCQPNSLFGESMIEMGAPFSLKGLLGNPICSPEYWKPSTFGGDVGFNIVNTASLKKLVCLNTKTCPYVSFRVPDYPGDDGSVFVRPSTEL
Assay type: functional
reported-property: AC50

- CC(N)Cc1ccccc1 (stereo not drawn): > 30 µM
- CCOc1cc(N)c([N+](=O)[O-])cc1C(=O)NC1CCN(CC2CC=CCC2)CC1 (stereo not drawn) [CINITAPRIDE]: > 30 µM
- CN1C(=O)CC(c2ccccc2)C1=O (stereo not drawn) [PHENSUXIMIDE]: > 10 µM
- CC[C@]1(O)C[C@@H]2CN(CCc3c([nH]c4ccccc34)[C@@](C(=O)OC)(c3cc4c(cc3OC)N(C)[C@H]3[C@@](O)(C(N)=O)[C@H](O)[C@]5(CC)C=CCN6CC[C@]43[C@@H]65)C2)C1: 25 µM
- O=C(C[S+]([O-])C(c1ccccc1)c1ccccc1)NO (stereo not drawn): > 30 µM
- CN1CCN(C(=O)OC2c3nccnc3C(=O)N2c2ccc(Cl)cn2)CC1 (stereo not drawn): > 30 µM

The compound CN(CCOc1ccc(NS(C)(=O)=O)cc1)CCc1ccc(NS(C)(=O)=O)cc1 [DOFETILIDE] , when measured on Prostaglandin G/H synthase 1 (Rattus norvegicus), yielded AC50 of > 30 µM

The compound CN1C(=O)COc2c(C(=O)NC3CN4CCC3CC4)cc(Cl)cc21 (stereo not drawn) , when measured on Prostaglandin G/H synthase 1 (Rattus norvegicus), yielded AC50 of > 30 µM

---

biological target: Muscarinic acetylcholine receptor M2 (Homo sapiens, UniProt P08172); format: functional, cell-based; further: assay procedure not described here
Sequence (P08172 whole entry): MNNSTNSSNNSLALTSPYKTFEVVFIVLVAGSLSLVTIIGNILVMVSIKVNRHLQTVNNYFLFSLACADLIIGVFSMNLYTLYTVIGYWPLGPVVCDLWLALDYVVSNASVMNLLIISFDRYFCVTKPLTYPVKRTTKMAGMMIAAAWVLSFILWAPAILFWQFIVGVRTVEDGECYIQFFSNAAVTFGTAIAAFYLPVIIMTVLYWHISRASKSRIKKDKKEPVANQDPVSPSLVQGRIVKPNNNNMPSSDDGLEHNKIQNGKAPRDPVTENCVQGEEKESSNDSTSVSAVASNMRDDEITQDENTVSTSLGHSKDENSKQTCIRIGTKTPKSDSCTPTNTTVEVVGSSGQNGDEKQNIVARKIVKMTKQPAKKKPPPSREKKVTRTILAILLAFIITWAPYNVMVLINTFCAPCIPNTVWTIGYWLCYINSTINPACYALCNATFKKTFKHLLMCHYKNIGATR
reported-property: AC50

Consider the following illustrative entries.
- CCNC(C)Cc1cccc(C(F)(F)F)c1 (centres undefined): > 30 µM
- NS(=O)(=O)c1cc(Cl)c(Cl)c(S(N)(=O)=O)c1 [DICHLORPHENAMIDE]: > 10 µM
- O=C(O)CCCc1ccccc1: > 30 µM
- COc1c(C)c2c(c(O)c1C/C=C(\C)CCC(=O)OCCN1CCOCC1)C(=O)OC2 [MYCOPHENOLATE MOFETIL]: > 30 µM
- CS(=O)(=O)c1ccc([C@@H](O)[C@@H](CO)NC(=O)C(Cl)Cl)cc1: > 30 µM
- Oc1ncnc2[nH]ncc12: > 10 µM

Consider C#CCN(C)[C@H](C)Cc1ccccc1 . Its measured AC50 is > 10 µM

Consider NC[C@H]1CC[C@H](C(=O)O)CC1 . Its measured AC50 is > 10 µM

Consider CCOc1cc(N)c([N+](=O)[O-])cc1C(=O)NC1CCN(CC2CC=CCC2)CC1 (centres undefined) [CINITAPRIDE] . Its measured AC50 is > 30 µM

---

AC50 values recorded for Melanocortin receptor 3 (Homo sapiens)

Consider the following illustrative entries.
* NC(=O)c1cnccn1 [PYRAZINAMIDE] | 12.6 µM
* NC1=NC(=O)C(c2ccccc2)O1 (stereo not given) [PEMOLINE] | > 30 µM
* CCC[C@@H]1C[C@@H](C(=O)N[C@@H]([C@H]2O[C@H](SC)[C@H](O)[C@@H](O)[C@H]2O)[C@H](C)Cl)N(C)C1 [CLINDAMYCIN] | > 30 µM
* COc1ccc(C(=O)NCc2ccc(OCCN(C)C)cc2)cc1OC [ITOPRIDE] | > 30 µM

Field: next molecule
Consider CCCCCCC(C)(C)c1cc(O)c2c(c1)OC(C)(C)C1CCC(=O)CC21 (stereo not given) [NABILONE] . Its measured AC50 is > 30 µM

---

AC50 values recorded for Gastrin/cholecystokinin type B receptor (Homo sapiens)

• NS(=O)(=O)c1cc(-c2nnn[nH]2)c(NCc2cccs2)cc1Cl [AZOSEMIDE] = > 30 µM
• CCCCCCCCOc1ccccc1C(=O)Nc1ccc(C(=O)OCC[N+](C)(CC)CC)cc1 [OTILONIUM BROMIDE] = > 1 µM
• CC(=O)O[C@@]12CO[C@@H]1C[C@H](O)[C@@]1(C)C(=O)[C@H](O)C3=C(C)[C@@H](OC(=O)[C@H](O)[C@@H](NC(=O)OC(C)(C)C)c4ccccc4)C[C@@](O)([C@@H](OC(=O)c4ccccc4)[C@H]21)C3(C)C [DOCETAXEL ANHYDROUS] = 19.2 µM
• NC(=O)C[S+]([O-])C(c1ccccc1)c1ccccc1 (configuration not stated) = > 30 µM
• Cc1c(C(=O)Nc2ccc(N3C[C@@H](C)O[C@@H](C)C3)nc2)cccc1-c1ccc(OC(F)(F)F)cc1 = > 30 µM

Consider Cc1c(O)c(=O)ccn1C . Its measured AC50 is > 30 µM

Consider Cc1cc2c(OCC(CNC(C)(C)C)OC(=O)c3ccccc3)cccc2[nH]1 (configuration not stated) . Its measured AC50 is > 30 µM

Consider O=C1CCC(N2C(=O)c3ccccc3C2=O)C(=O)N1 (configuration not stated) [THALIDOMIDE] . Its measured AC50 is > 30 µM

Consider CC(N)Cc1ccccc1 (configuration not stated) . Its measured AC50 is > 30 µM

Consider NC(=O)c1ncn([C@@H]2O[C@H](CO)[C@@H](O)[C@H]2O)c1O . Its measured AC50 is > 30 µM

Consider CCCS(=O)(=O)Nc1ccc(F)c(C(=O)c2c[nH]c3ncc(-c4ccc(Cl)cc4)cc23)c1F . Its measured AC50 is > 30 µM

Consider CN1C(=O)COc2c(C(=O)NC3CN4CCC3CC4)cc(Cl)cc21 (configuration not stated) . Its measured AC50 is > 30 µM

Consider C#C[C@]1(O)CC[C@H]2[C@@H]3CCc4cc(O)ccc4[C@H]3CC[C@@]21C . Its measured AC50 is > 30 µM

---

Target: Alpha-1A adrenergic receptor (Homo sapiens, UniProt P35348); further: assay procedure not described here
Sequence (P35348 whole entry): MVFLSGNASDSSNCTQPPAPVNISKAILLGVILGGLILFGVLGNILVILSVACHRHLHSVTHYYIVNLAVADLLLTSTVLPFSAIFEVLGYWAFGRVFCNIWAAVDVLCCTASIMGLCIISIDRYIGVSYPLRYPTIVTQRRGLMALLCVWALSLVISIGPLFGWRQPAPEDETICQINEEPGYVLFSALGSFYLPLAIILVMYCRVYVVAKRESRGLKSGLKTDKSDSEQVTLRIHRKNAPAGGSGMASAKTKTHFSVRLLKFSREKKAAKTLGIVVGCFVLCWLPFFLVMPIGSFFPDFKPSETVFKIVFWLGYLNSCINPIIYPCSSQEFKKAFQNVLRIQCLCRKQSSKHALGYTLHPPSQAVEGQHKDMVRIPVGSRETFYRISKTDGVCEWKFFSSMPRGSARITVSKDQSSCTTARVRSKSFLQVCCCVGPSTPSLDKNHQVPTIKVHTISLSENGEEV
reported-property: AC50

Consider the following illustrative entries.
* Oc1ncnc2[nH]ncc12 | > 10 µM
* NS(=O)(=O)c1cc2c(cc1Cl)NCNS2(=O)=O [HYDROCHLOROTHIAZIDE] | > 10 µM
* O=C(O)CCCc1ccccc1 | > 10 µM

Field: next compound
Consider OCCN1CCN(CCCN2c3ccccc3C=Cc3ccccc32)CC1 . Its measured AC50 is 1.41 µM

---

AC50 values recorded for Neuropeptide Y receptor type 1 (Homo sapiens)

- Cc1ccc(C(=O)c2cc(O)c(O)c([N+](=O)[O-])c2)cc1: > 10 µM
- CN(CCCN1c2ccccc2CCc2ccccc21)CC(=O)c1ccc(Cl)cc1: > 30 µM
- CCCCOc1cc(C(=O)NCCN(CC)CC)c2ccccc2n1: > 30 µM

The molecule COc1ccc2cccc(CCNC(C)=O)c2c1 , when measured on Neuropeptide Y receptor type 1 (Homo sapiens), yielded AC50 of > 30 µM

The molecule C#C[C@]1(O)CC[C@H]2[C@@H]3CCc4cc(O)ccc4[C@H]3CC[C@@]21C , when measured on Neuropeptide Y receptor type 1 (Homo sapiens), yielded AC50 of > 30 µM

The molecule CN1CC[C@]23CCCC[C@H]2[C@H]1Cc1ccc(O)cc13 , when measured on Neuropeptide Y receptor type 1 (Homo sapiens), yielded AC50 of > 10 µM

Where do these numbers come from? They come from ChEMBL document CHEMBL5291721.
